Target: Muscarinic acetylcholine receptor M1 (Homo sapiens, UniProt P11229)
Sequence (P11229 whole entry): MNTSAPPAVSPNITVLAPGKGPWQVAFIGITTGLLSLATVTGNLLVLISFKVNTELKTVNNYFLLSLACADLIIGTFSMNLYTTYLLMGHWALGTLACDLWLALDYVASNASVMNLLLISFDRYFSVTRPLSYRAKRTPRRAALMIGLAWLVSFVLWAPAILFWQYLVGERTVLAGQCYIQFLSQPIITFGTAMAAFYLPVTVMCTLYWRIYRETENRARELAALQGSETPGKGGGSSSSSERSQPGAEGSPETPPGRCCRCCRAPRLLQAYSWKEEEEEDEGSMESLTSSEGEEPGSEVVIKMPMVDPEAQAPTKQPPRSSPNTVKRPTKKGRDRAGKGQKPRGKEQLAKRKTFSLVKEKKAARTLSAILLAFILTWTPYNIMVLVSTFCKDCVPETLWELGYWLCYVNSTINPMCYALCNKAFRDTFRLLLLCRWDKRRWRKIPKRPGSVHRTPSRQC
Test: Positive allosteric modulation at muscarinic acetylcholine receptor M1(unknown origin)
pEC50: −log10 of the molar value.
Readout type: pEC50

Compound	pEC50
Cn1cc(-c2ccc(CN3C(=O)C4(OCCO4)c4ccccc43)c(F)c2)cn1	5.49
CN1CCC2(C1)C(=O)N(Cc1ccc(-c3cnn(C)c3)cc1F)c1ccccc12 (configuration not stated)	5.42
